Reference source: patent US20060233788A1

molecular target: T1, Fab 1621; experiment: competitive ELISA, Fab 1621 on coated BSA-hGhrelin; compound 1 ug/ml
T1 construct: Mouse Fab, kappa light chain
T1 sequence (VH, as listed by the source limits assumed, chain 1 of 2): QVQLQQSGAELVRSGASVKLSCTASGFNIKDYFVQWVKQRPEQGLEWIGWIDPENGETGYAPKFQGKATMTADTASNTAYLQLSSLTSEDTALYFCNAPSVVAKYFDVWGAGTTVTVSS
T1 sequence (VL, as listed by the source limits assumed, chain 2 of 2): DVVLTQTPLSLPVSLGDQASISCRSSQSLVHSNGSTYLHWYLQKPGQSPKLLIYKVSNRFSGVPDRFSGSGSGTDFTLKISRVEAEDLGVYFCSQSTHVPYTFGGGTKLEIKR
No end group written: not given here. *: point of attachment. Octanoyl = CCCCCCCC(=O)*
reported.metric: Ave. OD (OD)
Quick note: give the figure in OD, leave out the unit.

>>> reported_value("GSSFLSPE (also called hGhrelin (1-8 desacyl)) [Ghrelin (1-8, desacyl)]")
1.33

Task: Param item = GSSFLSPEHQRVQQRKESKKPPAKLQPX (octanoyl group on the serine at position 3, the 1-28 form has Arg at 28; also called hGhrelin; acylated hGhrelin) [full-length human ghrelin (1-28) acylated with an octanoyl group on the serine at position 3] ; retrieve measured Ave. OD.
Result: 0.0495

Task: State the recorded Ave. OD for this entry: GSS(Octanoyl)FLSPE (also called hGhrelin (1-8 acyl); Human 1-8 acyl) [Ghrelin (1-8 acyl)]
Result: 1.32

Task: What Ave. OD value was documented for this binder, GSSFLSPEHQKAQQRKESKKPPAKLQPR (peptide, UniProt Q9QYH7 24-51, looked up, also: acylated (position and acyl group not given here), mature; The UniProt entry is the precursor; the assay used the ghrelin peptide; also called rGhrelin) [full-length, acylated rat ghrelin] ?
Result: 0.932

Task: Consider the binder shown here: HQRVQQRKESKKPPAKLQPR (also called hGhrelin (9-28)) [Ghrelin (9-28)] What is its recorded Ave. OD?
Result: 1.05
